experiment: basal HepG2 mitochondrial membrane potential changes, profiling panel, cell-based, JC-1 fluorescence, 24 h, 100 nL compound (AID 1167); conditions: higher = more signal; also: test concentration not given here
Outcome label depends on z-score relative to -0.6: at/above gives Met, below gives Not met.

Cc1ccc(F)cc1S(=O)(=O)N[C@@H]1CCN(Cc2ccc(Oc3ccccc3)cc2)C1 = Met
C=CC1c2cc(O)c(OC)cc2CCN1Cc1sc2ccccc2c1Cl (configuration not stated) = Not met
O=C1O[C@@H](c2ccccc2)[C@@H](c2ccccc2)N2[C@@H](c3ccc(O)cc3)[C@]3(C(=O)Nc4ccc(C#CCCO)cc43)[C@@H](C(=O)NC[C@H](O)c3ccccc3)[C@H]12 = Not met
COc1ccc(NN2C(C(O)c3ccccn3)C=CC3C(=O)N(C4CCCCC4)C(=O)C32)cc1 (configuration not stated) = Not met
C=C(C(=O)CC[C@H](OC(C)=O)c1cccc(OCCO)c1)C(C)C = Not met

Textbook exercise: given the entry `CO[C@H]1O[C@H](CO)[C@@H](OC(=O)Nc2ccccc2-c2ccccc2)[C@H](OC(=O)Nc2ccc3c(c2)OCO3)[C@@H]1OC(=O)Nc1ccc2c(c1)OCO2` , state whether its z-score is greater than or equal to -0.6.
Met

Textbook exercise: given the entry `CC(C)(C)OC(=O)CC[C@]1(C(=O)NCCN2CCOCC2)N=C(c2ccc(OCCCO)cc2)O[C@H]1c1ccccc1N=[N+]=[N-]` , state whether its z-score is greater than or equal to -0.6.
Met

====

target: Calmodulin-1 (Homo sapiens) (UniProt P0DP23); experiment: CALM1 binders on microarrays, EGTA buffer, profiling panel, biochemical, small-molecule microarray, Cy5-labelled CALM1 (AID 1111); conditions: Cy5-CALM1 binding fluorescence, higher = more signal;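 also: labelled calmodulin applied in Tris saline Tween buffer holding calcium plus EGTA and DTT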
measured.parameter: composite z-score
Give a plain numeric answer without units written out.

COCCOC(=O)N1C(=O)[C@@]2(c3cc(C#CC4(O)CCCCCC4)ccc31)[C@H](C(=O)N1CCCCCCC1)[C@H]1C(=O)O[C@H](c3ccccc3)[C@H](c3ccccc3)N1[C@@H]2c1ccc(OCCO)cc1 = 2.33
CC1CC/C=C\[C@H]2OC34C=CCN(CCN5CCOCC5)C(=O)[C@H]3N(CCO)C(=O)[C@@H]4C2C(=O)O1 (some centres not stated) = -0.714
NCCCCCNC(=O)[C@@H]1C[C@@H]2C(=O)N[C@@H](CCCCN)C(=O)N2[C@@H]1c1cccc(OCCO)c1 = -0.804

Give Calmodulin-1 (Homo sapiens) (UniProt P0DP23) composite z-score for `C=CCNC(=O)[C@@H]1[C@H]2C(=O)O[C@H](c3ccccc3)[C@H](c3ccccc3)N2[C@H](c2ccc(OCCO)cc2)[C@@]12C(=O)N(C(=O)OCCOC)c1ccc(C#CC3=CCCCC3)cc12`
1.66

Give Calmodulin-1 (Homo sapiens) (UniProt P0DP23) composite z-score for `COc1cc2c(cc1OC)CN(C(=O)[C@H]1[C@@H]3C(=O)O[C@@H](c4ccccc4)[C@@H](c4ccccc4)N3[C@@H](c3ccc(OCCO)cc3)[C@]13C(=O)Nc1ccc(C#CCCO)cc13)CC2`
1.23

====

Here, each record is paired with measured composite z-score data.
molecular target: Fibroblast growth factor 2 (Homo sapiens); experiment: FGF2 binders on small-molecule microarrays, primary screen, biochemical, small-molecule microarray, 635/667 nm fluorescence (AID 1133); conditions: small-molecule microarray binding, FGF2, fluorescence 635/667; higher = more signal

Examples with answers:
C=C(C(=O)CC[C@H](OC(C)=O)c1cccc(OCCO)c1)C(C)C = -0.883
CCOC(=O)C[C@H]1[C@H](OC(=O)c2ccc(-c3ccccc3)cc2)[C@@H](NC(=O)c2ccc3ccccc3c2)c2cc(OCCCO)ccc2N1C(=O)c1ccc2ccccc2n1 = -0.141
COc1ccccc1CN1C(=O)c2ccccc2[C@](Cc2ccccc2I)(C(=O)NC(C)C)[C@@H]1c1ccc(CO)cc1 = 0.506
COC(=O)[C@@]1(Cc2ccc(OC)cc2)[C@H]2c3cc(C(=O)N(C)C)n(Cc4ccccc4)c3C[C@H]2CN1C(=O)c1ccccc1 = -0.825
COC(=O)[C@@]1(Cc2ccc(OC)cc2)[C@H]2c3cc(C(=O)N(C)C)n(CCc4c[nH]c5ccc(O)cc45)c3C[C@H]2CN1C(=O)c1ccccc1 = -0.218

Param item = `CCOC(=O)C1=CC[C@@H](c2ccc([N+](=O)[O-])cc2)N(S(=O)(=O)c2ccc(C)cc2)[C@H]1c1ccccc1` ; retrieve measured composite z-score.
0.554

Param item = `C[C@]1(C(=O)O)c2ccccc2C(=O)N(Cc2ccccc2)[C@H]1c1ccc(CO)cc1` ; retrieve measured composite z-score.
-1.33

Param item = `CCOC(=O)[C@H]1C/C=C/C[C@H](C(=O)OCC)C(=O)O[C@H]2[C@@H](OC)O[C@H](CO)[C@@H](OC(=O)Nc3ccc(OC)cc3)[C@@H]2OC1=O` ; retrieve measured composite z-score.
0.741

====

molecular target: Calmodulin-1 (Homo sapiens); assay: calcium-bound CALM1 binders on microarrays, profiling panel, artefact control for SMM control-protein annotation, biochemical, small-molecule microarray, Cy5-labelled CALM1, plus calcium (AID 1112); conditions: Cy5-CALM1 binding fluorescence, higher = more signal;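 also: score merges spot fluorescence with signal to noise from triplicate slides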
measured.parameter: composite z-score
Give a plain numeric answer without units written out.

Examples with answers:
Cc1ccc(S[C@]2(C(=O)NCC(F)(F)F)CC(=O)N(Cc3ccccc3)[C@@H]2c2ccc(CO)cc2)cc1 = 0.526
CCOC(=O)C[C@H]1[C@H](OC(=O)c2ccc(C(=O)c3ccccc3)cc2)[C@@H](NC(=O)c2ccc3ccccc3c2)c2cc(OCCCO)ccc2N1C(=O)c1ccccc1 = 0.602
COc1ccccc1CN1C(=O)c2ccccc2[C@](Cc2ccccc2I)(C(=O)NC(C)C)[C@@H]1c1ccc(CO)cc1 = 0.0649

Param item = COC1(C)CN(Cc2ccccc2Br)[C@H](/C=C/c2ccccc2)[C@H](Cc2ccccc2)O1 (some centres not stated) ; retrieve measured composite z-score.
-0.412

Param item = `O=C1NCC(=O)N2[C@@H]1C[C@@H](C(=O)O)[C@H]2c1ccc(O)cc1` ; retrieve measured composite z-score.
-0.451

Param item = `C[C@]1(C(=O)NC2CC2)c2ccccc2C(=O)N(Cc2ccc(OC(F)(F)F)cc2)[C@H]1c1ccc(CO)cc1` ; retrieve measured composite z-score.
0.479

Param item = `COc1ccc([Si](C)(C)[C@H]2[C@H](CCn3cc([C@H](O)c4ccccc4)nn3)O[C@@]3(C(=O)N(Cc4ccc(N5CCC5=O)cc4)c4ccccc43)[C@@H]2C)cc1` ; retrieve measured composite z-score.
-0.217

====

assay: E. coli DRC41 culture turbidity changes, primary screen, E. coli filamentation inducer project, strain DRC41, OD650, 48 h (AID 1152);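 also: E. coli MC1000 strain DRC41 lacking acrAB efflux pump and sulA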; conditions: E. coli DRC41 (acrAB sulA), higher = more signal, called active from +8 up or from −8 down
Outcome label depends on z-score relative to -0.5: at/above gives Fulfilled, below gives Not fulfilled.

# count of solved cases: 8
C=CCNC(=O)[C@@H]1[C@H]2C(=O)O[C@H](c3ccccc3)[C@H](c3ccccc3)N2[C@H](c2ccc(OCCO)cc2)[C@@]12C(=O)N(C(=O)OCCOC)c1ccc(C#CC3=CCCCC3)cc12 = Not fulfilled
C=CCNC(=O)[C@H]1[C@@H]2C(=O)O[C@@H](c3ccccc3)[C@@H](c3ccccc3)N2[C@@H](c2ccccc2OCCO)[C@]12C(=O)N(C(=O)OCCOC)c1ccc(C#CC3=CCCCC3)cc12 = Fulfilled
CCOC(=O)C1=C[C@@H](c2ccccc2)N(S(=O)(=O)c2ccc(C)cc2)[C@H]1c1cccc(Cl)c1 = Not fulfilled
C[C@@H]1ON(c2ccc(C(=O)OC(C)(C)C)cc2)[C@H](c2ccc(Br)cc2)[C@H]1C(=O)N1C(=O)OC[C@H]1Cc1ccccc1 = Fulfilled
COc1ccc(C(O)C2C=CC3C(=O)N(c4ccccc4)C(=O)C3N2Nc2ccccc2)cc1OCc1ccccc1 (stereo not drawn) = Not fulfilled
COC(=O)[C@@]1(Cc2ccc(OC)cc2)[C@H]2c3cc(C(=O)N(C)C)n(Cc4nc5ccccc5[nH]4)c3C[C@H]2CN1C(=O)c1ccccc1 = Not fulfilled
CO[C@H]1O[C@H](CO)[C@@H](OC(=O)Nc2ccc(Oc3ccccc3)cc2)[C@H](OC(=O)Nc2ccccc2-c2ccccc2)[C@@H]1OC(=O)Nc1ccccc1-c1ccccc1 = Fulfilled
O=c1cccc(-c2cccc(Cl)c2)o1 = Fulfilled

Textbook exercise: given the entry `COc1ccccc1CN1C(=O)c2ccccc2[C@@H](C(=O)NC(C)C)[C@@H]1c1ccc(CO)cc1` , state whether its z-score is greater than or equal to -0.5.
Fulfilled

Textbook exercise: given the entry `COCCOC(=O)N1C(=O)[C@@]2(c3cc(C#CC4(O)CCCCCC4)ccc31)[C@H](C(N)=O)[C@H]1C(=O)O[C@H](c3ccccc3)[C@H](c3ccccc3)N1[C@@H]2c1ccccc1OCCO` , state whether its z-score is greater than or equal to -0.5.
Fulfilled

Textbook exercise: given the entry `CC(C)(C)OC(=O)CC[C@]1(C(=O)NCCN2CCOCC2)N=C(c2ccc(OCCCO)cc2)O[C@H]1c1ccccc1N=[N+]=[N-]` , state whether its z-score is greater than or equal to -0.5.
Fulfilled

Textbook exercise: given the entry `CC(C)(C)OC(=O)CC[C@]1(C(=O)NCCN2CCOCC2)N=C(c2ccc(OCCCO)cc2)O[C@H]1c1ccccc1` , state whether its z-score is greater than or equal to -0.5.
Fulfilled
